experiment: In vivo bioavailability / PK after 1 mg/kg IV or 10 mg/kg PO; design: species or system Male ICR mice; conditions: male, ICR, mouse; mice; 1 mg/kg IV; plasma; read-out: C0 after IV administration
Assay metric: C0 (ng/mL)
Numbers only, in ng/mL.

Cc1[nH]nc(-c2ccc(O)c(C)c2O)c1-c1nc2ccccc2s1; 762
O=[N+]([O-])c1c(Cl)cc(O)c2c1C1C=CCC1C(c1ccc(Cl)cc1)N2 (stereo not drawn); 2870

Problem: # input compound: CC(C)C[C@@H](CO)NCc1cc(O)c2cc(F)ccc2n1 ; wanted: its C0
Solution: 2700
